Organism: Cricetulus griseus
Experiment: Ratio between Ki(alpha-1b)/Ki(alpha1A)
READOUT LABEL: Selectivity ratio

Check out these entries, answers already filled in.
>  <COMPOUND>
COc1cccc2c1CC[C@H]1CN(CCn3c(=O)[nH]c4c(sc5c(C#N)cccc54)c3=O)C[C@@H]21

>  <EXPERIMENTAL VALUE>
4.24

$$$$
>  <COMPOUND>
COc1ccc2sc3c(=O)n(CCN4C[C@@H]5CCc6c(OC)cccc6[C@@H]5C4)c(=O)[nH]c3c2n1

>  <EXPERIMENTAL VALUE>
4.5

$$$$
>  <COMPOUND>
COc1cccc2c1CCC1CN(CCn3c(=O)[nH]c4c(sc5ccccc54)c3=O)CC21 (stereo in doubt; 18)

>  <EXPERIMENTAL VALUE>
4

$$$$

[1] COc1cccc2c1CCC1CN(CCCCn3c(=O)[nH]c4c(sc5ccccc54)c3=O)CC21 (cis isomer)
[2] COc1cccc2c1CC[C@H]1CN(CCn3c(=O)[nH]c4c(sc5ccc(C#N)cc54)c3=O)C[C@@H]21
[ask] Could you determine which record has the numerically smaller Selectivity ratio? Candidates: 1 and 2 Indicate your choice by writing its label.
[reply] 1

[P] COc1cccc2c1CC[C@H]1CN(CCn3c(=O)[nH]c4c(sc5c(Cl)cccc54)c3=O)C[C@@H]21
[Q] COc1cccc2c1CC[C@H]1CN(CCn3c(=O)[nH]c4c(sc5ccc(C)cc54)c3=O)C[C@@H]21
[ask] Which has the higher Selectivity ratio, P or Q ? Indicate your choice by writing its label.
[reply] P

====

Species on record: Cricetulus griseus
Assay: Ratio between Ki(alpha-1b)/Ki(alpha1A)
READOUT LABEL: Selectivity ratio

Check out these entries, answers already filled in.
>  <COMPOUND>
COc1cccc2c1CC[C@H]1CN(CCn3c(=O)[nH]c4c(sc5nccnc54)c3=O)C[C@@H]21

>  <EXPERIMENTAL VALUE>
17.3

$$$$
>  <COMPOUND>
COc1cccc2c1CC[C@H]1CN(CCn3c(=O)[nH]c4c(sc5ccc(C(N)=O)cc54)c3=O)C[C@@H]21

>  <EXPERIMENTAL VALUE>
12.2

$$$$
>  <COMPOUND>
COc1cccc2c1CC[C@H]1CN(CCn3c(=O)[nH]c4c(sc5ccccc54)c3=O)C[C@@H]21 (stereo in doubt; 23)

>  <EXPERIMENTAL VALUE>
1.55

$$$$
>  <COMPOUND>
COc1cccc2c1CC[C@H]1CN(CCn3c(=O)[nH]c4c(sc5cccc(C)c54)c3=O)C[C@@H]21

>  <EXPERIMENTAL VALUE>
5.38

$$$$
>  <COMPOUND>
COc1cccc2c1CC[C@H]1CN(CCn3c(=O)[nH]c4c(sc5ncccc54)c3=O)C[C@@H]21

>  <EXPERIMENTAL VALUE>
10.4

$$$$

[1] COc1cccc2c1CC[C@H]1CN(CCn3c(=O)[nH]c4c(sc5cccc(C#N)c54)c3=O)C[C@@H]21
[2] COc1cccc2c1CC[C@H]1CN(CCn3c(=O)[nH]c4c(sc5cccc(Cl)c54)c3=O)C[C@@H]21
[ask] Could you determine which record has the numerically smaller Selectivity ratio? Candidates: 1 and 2 Indicate your choice by writing its label.
[reply] 2

====

Species on record: Cricetulus griseus
Assay: Ratio between Ki(alpha-1b)/Ki(alpha1A)
READOUT LABEL: Selectivity ratio

>  <MOLECULE>
COc1cccc2c1CCC1CN(CCn3c(=O)[nH]c4c(sc5ccccc54)c3=O)CC21 (stereo in doubt; 21)

>  <READOUT LABEL>
Selectivity ratio

>  <EXPERIMENTAL VALUE>
3.17

$$$$

[a] COc1cccc2c1CC[C@H]1CN(CCn3c(=O)[nH]c4c(sc5nc(-c6ccccc6)cnc54)c3=O)C[C@@H]21
[b] COc1cccc2c1CC[C@H]1CN(CCn3c(=O)[nH]c4c(sc5cnccc54)c3=O)C[C@@H]21
[ask] Which has the higher Selectivity ratio, a or b ? Indicate your choice by writing its label.
[reply] a

[I] COc1cccc2c1CC[C@H]1CN(CCn3c(=O)[nH]c4c(sc5ccc(C(=O)N(C)C)cc54)c3=O)C[C@@H]21
[II] COc1cccc2c1CC[C@H]1CN(CCn3c(=O)[nH]c4c(sc5ccncc54)c3=O)C[C@@H]21
[III] COc1cccc2c1CC[C@H]1CN(CCn3c(=O)[nH]c4c(sc5cc(C(N)=O)ccc54)c3=O)C[C@@H]21
[ask] Which order do these items take when sorted by rising Selectivity ratio? List them. Respond with the label ranking, as requested.
[reply] III, I, II

Values compiled from ChEMBL document CHEMBL1132919.
